Provide the reported SH2 binding enrichment of each item.
TARGET: Grb2 SH2 (UniProt P62993)
Sequence (P62993 whole entry, looked up, the tested form may be a part): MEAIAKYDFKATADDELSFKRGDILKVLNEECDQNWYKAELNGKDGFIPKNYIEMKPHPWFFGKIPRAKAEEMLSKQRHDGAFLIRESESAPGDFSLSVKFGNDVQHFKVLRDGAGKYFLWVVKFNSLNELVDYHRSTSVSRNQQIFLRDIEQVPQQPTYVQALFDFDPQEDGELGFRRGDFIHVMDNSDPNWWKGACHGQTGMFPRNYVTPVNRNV
TEST PROTOCOL: SH2 binding enrichment of the phosphorylated peptide, bacterial display (enrichment ratio); higher = better substrate or ligand; peptides without Tyr show the background;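 further: peptide library displayed on the E. coli surface as eCPX fusions, selected cells deep-sequenced, score is each peptide's frequency after selection divided by its frequency in the input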
Give bare numbers.

REDIFYTSKLW [AKR1C2_Y81]; 1.04

Here are 5 sequences. What values of SH2 binding enrichment were reported for them?
1. IKKLIYVYLVI [JAGN1_Y42_H44Y]
2. GVVVPYEPPEV [TP53_Y220_S215G]
3. SNMPTYSGHFS [GRIN2A_Y1224_T1229S]
4. LLKAKYELLNA [POLR3A_Y714]
5. HYPDVYAREQL [ALX3_Y181]

Reply:
[1.4, 0.614, 0.898, 0.964, 0.802]
